src = patent US5807535A

# Protocol Notes: Biodistribution of 67Ga complexes in mice
# Format: in vivo, balb/c mice
# Details: 30 min
Measured Quantity: biodistribution skin

Query block: Please look up its biodistribution skin: O=C(O)CN(CCN(CC(=O)O)CC(=O)Nc1ccc(Cl)cc1O)CC(=O)Nc1ccc(Cl)cc1O [Compound 2]
Result block: 0.88 % ID

Query block: And O=C(O)CN(CCN(CC(=O)O)CC(=O)Nc1ccccc1O)CC(=O)Nc1ccccc1O [Compound 1] ?
Result block: 1.56 % ID

Query block: And CC(C)(C)c1ccc(O)c(NC(=O)CN(CCN(CC(=O)O)CC(=O)Nc2cc(C(C)(C)C)ccc2O)CC(=O)O)c1 [Compound 4] ?
Result block: 0.18 % ID

Query block: And Cc1cc(C)c(O)c(NC(=O)CN(CCN(CC(=O)O)CC(=O)Nc2cc(C)cc(C)c2O)CC(=O)O)c1 [Compound 6] ?
Result block: 0.86 % ID
